# Staphylococcus aureus ATCC 29213: MIC values follow
Kindly answer with a numeric value in µM, unit omitted.

Some entries whose results are on file:
INSERT INTO measurements (compound, reported) VALUES
  ('NCC(=O)N[C@@H](CCCN=C(N)N)C(=O)N[C@@H](CCCN=C(N)N)C(=O)N1CCC[C@H]1C(=O)N[C@@H](CCCN=C(N)N)C(=O)N1CCC[C@H]1C(=O)N[C@@H](CCCN=C(N)N)C(=O)N1CCC[C@H]1C(=O)N[C@@H](CCCN=C(N)N)C(=O)N1CCC[C@H]1C(=O)N[C@@H](Cc1c[nH]c2ccccc12)C(=O)N[C@@H](Cc1c[nH]c2ccccc12)C(=O)N[C@@H](Cc1c[nH]c2ccccc12)C(N)=O [GRRPRPRPRPWWW]', 40),
  ('CC[C@H](C)[C@H](N)C(=O)N[C@@H](CC(C)C)C(=O)NCC(=O)N[C@@H](CCCCN)C(=O)N[C@H](C(=O)N[C@@H](Cc1c[nH]c2ccccc12)C(=O)N[C@@H](CCC(=O)O)C(=O)N1CCC[C@H]1C(=O)N[C@H](C(=O)N[C@@H](CCCCN)C(=O)N[C@@H](CO)C(=O)N[C@@H](CC(C)C)C(=O)N[C@@H](Cc1ccccc1)C(N)=O)[C@@H](C)CC)[C@@H](C)CC [ILGKIWEPIKSLF]', 50);

Okay, next one:
Exercise: Give its MIC value. Item: CC[C@H](C)[C@H](NC(=O)[C@H](CCCN=C(N)N)NC(=O)[C@H](Cc1c[nH]c2ccccc12)NC(=O)[C@H](CCCN=C(N)N)NC(=O)[C@@H](N)CCCN=C(N)N)C(=O)N[C@H](C(=O)N[C@H](C(=O)N[C@H](C(=O)N[C@@H](CCCN=C(N)N)C(=O)N[C@H](C(=O)N[C@@H](CCCN=C(N)N)C(=O)N[C@@H](CCCN=C(N)N)C(=O)O)C(C)C)[C@@H](C)CC)C(C)C)C(C)C [RRWRIVVIRVRR]
Key: 1.2

* * *

# Bacillus cereus: MIC values follow

INSERT INTO assay_data (compound, study_target, reported) VALUES
  ('CC(C)C[C@H](NC(=O)[C@H](CCCCN)NC(=O)[C@H](Cc1ccccc1)NC(=O)[C@@H](NC(=O)[C@@H](NC(=O)CNC(=O)[C@H](CC(C)C)NC(=O)[C@@H](N)Cc1ccccc1)C(C)C)C(C)C)C(=O)N[C@@H](C)C(=O)N[C@@H](CO)C(=O)N[C@@H](CCCCN)C(=O)N[C@H](C(=O)N[C@@H](Cc1ccccc1)C(=O)NCC(=O)N[C@@H](C)C(=O)N[C@H](C(=O)N[C@@H](Cc1ccccc1)C(=O)N[C@@H](CCCCN)C(=O)N[C@@H](CCCCN)C(=O)N[C@H](C(=O)O)C(C)C)C(C)C)C(C)C [FLGVVFKLASKVFGAVFKKV]', 'Bacillus cereus', '3.66 µM'),
  ('CC(C)C[C@H](NC(=O)[C@H](CC(C)C)NC(=O)[C@H](CO)NC(=O)[C@H](CCCCN)NC(=O)[C@H](CC(C)C)NC(=O)[C@@H]1CCCN1C(=O)[C@H](C)NC(=O)[C@H](Cc1ccccc1)NC(=O)[C@@H]1CCCN1C(=O)[C@H](CC(C)C)NC(=O)[C@@H](NC(=O)[C@H](CCCCN)NC(=O)[C@H](CCCCN)NC(=O)[C@@H](NC(=O)[C@H](CO)NC(=O)[C@@H](N)C(C)C)C(C)C)C(C)C)C(=O)N[C@@H](CO)C(=O)N[C@@H](Cc1ccccc1)C(=O)N[C@@H](C)C(=O)N[C@@H](Cc1ccccc1)C(=O)O [VSVKKVLPFAPLKSLLSFAF]', 'Bacillus cereus', '≥ 117 µM'),
  ('CC(C)C[C@H](NC(=O)[C@@H](N)Cc1ccccc1)C(=O)NCC(=O)N[C@H](C(=O)N[C@H](C(=O)N[C@@H](Cc1ccccc1)C(=O)N[C@@H](CCCCN)C(=O)N[C@@H](CCCCN)C(=O)N[C@@H](C)C(=O)N[C@@H](CO)C(=O)N[C@@H](CCCCN)C(=O)N[C@H](C(=O)N[C@@H](Cc1ccccc1)C(=O)N1CCC[C@H]1C(=O)N[C@@H](C)C(=O)N[C@H](C(=O)N[C@@H](Cc1ccccc1)C(=O)N[C@@H](CCCCN)C(=O)N[C@@H](CCCCN)C(=O)N[C@H](C(=O)O)C(C)C)C(C)C)C(C)C)C(C)C)C(C)C [FLGVVFKKASKVFPAVFKKV]', 'Bacillus cereus', '≥ 114 µM');

Okay, next one:
Exercise: Give its MIC value. Item: CC[C@H](C)[C@H](NC(=O)[C@H](CO)NC(=O)CNC(=O)[C@@H](NC(=O)[C@H](CC(C)C)NC(=O)CN)[C@@H](C)CC)C(=O)NCC(=O)N[C@@H](CCCCN)C(=O)N[C@@H](C)C(=O)N[C@@H](CC(C)C)C(=O)NCC(=O)NCC(=O)N[C@@H](CC(C)C)C(=O)N[C@@H](CC(C)C)C(=O)N[C@H](C(=O)N[C@@H](CC(=O)O)C(=O)N[C@H](C(=O)N[C@@H](CC(C)C)C(=O)N[C@@H](CCCCN)C(=O)N1CCC[C@H]1C(=O)N[C@@H](CCCCN)C(=O)N[C@@H](CC(C)C)C(=O)O)C(C)C)C(C)C [GLIGSIGKALGGLLVDVLKPKL]
Key: ≥ 46.3 µM

Where these numbers come from: DBAASP
